protocol-notes: chemical genetic growth profiling, strain panel (AID 1159580);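 further: tested at 20 µM; growth read once vehicle control cultures reached saturation at 30 °C; 1 = growth at the plate median or of vehicle wells; lower values mean less growth of the strain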
condition-notes: S. cerevisiae deletion strains, growth OD, locus YMR001C, strain CDC5, hits give low values
Hit rate of the full screen: of about 5,500 compounds, about 2,000 (36%) were called active. About 18% were inconclusive and are not listed. The list shows a part of the results.
measurement-kind: normalized growth
Output spec: single numeric token, no unit.

INSERT INTO measurements (compound, measured_number) VALUES
  ('CC(C)c1ccc(-c2cc(=O)c3ccccc3o2)cc1', 0.921),
  ('Clc1ccccc1N/N=C\Cc1nnnn1-c1ccccc1', 0.967),
  ('O=C(CSCc1nc(-c2ccc(Cl)cc2)cs1)N/N=C\c1cccs1', 0.976);

Documented normalized growth of N#Cc1c(Br)cnn1Cc1cc(C(F)(F)F)cc(C(F)(F)F)c1 : 0.997

Documented normalized growth of Cc1ccc(C(=O)O/N=C(/N)CSc2ncccc2C(F)(F)F)cc1 : 1.01

====

protocol-notes: chemical genetic growth profiling, strain panel (AID 1159580)
condition-notes: S. cerevisiae deletion strains, growth OD, locus YOR106W, strain vam3
The campaign covered roughly 5,500 compounds. About 2,000 (36%) were called active. Inconclusive results (about 18%) are left out. Cut-off read from the data, not from the text of the source: active = normalized growth mostly below about 0.91 (no sharp cut-off); inconclusive = no clear call, values can overlap the other calls; inactive = mostly above about 0.92. The list shows a part of the results.
Respond only with the outcome that fits, drawn from yes for active, no for inactive

Use these answered entries as a reference point.
INSERT INTO assay_data (compound, label_value) VALUES
  ('CC[N+]1(C)CCCC(OC(=O)C(O)(c2ccccc2)c2ccccc2)C1 (stereo not given)', 'no'),
  ('COc1cc([C@@H]2c3cc4c(cc3[C@H](OC(C)=O)[C@H]3COC(=O)[C@H]23)OCO4)cc(OC)c1OC', 'no'),
  ('CCN1CCN(c2cc3c(cc2F)c(=O)c(C(=O)O)cn3C2CC2)CC1', 'no'),
  ('CCOC(=O)C1C(C=C(C)C)C1(C)C (stereo not given)', 'no'),
  ('COc1cc2c3cc1Oc1cc(ccc1O)C[C@@H]1c4c(cc(OC)c(O)c4Oc4ccc(cc4)C[C@@H]3N(C)CC2)CC[N+]1(C)C', 'no');

# next compound below
Name the outcome recorded for O=C1c2c(O)ccc(O)c2C(=O)c2c(NCCNCCO)ccc(NCCNCCO)c21 in the assay. yes

====

protocol-notes: chemical genetic growth profiling, strain panel (AID 1159580)
condition-notes: S. cerevisiae deletion strains, growth OD, locus YGR135W, strain pre9, hits give low values
About 2,000 (36%) of roughly 5,500 compounds were called active. Not shown: some 18% with an inconclusive outcome. Some of the results follow.
Listing: normalized growth of selected compounds
Output spec: single numeric token, no unit.

INSERT INTO measurements (compound, measurement_kind, measured_number) VALUES
  ('CCCCCCCCCc1ccc(O)cc1', 'normalized growth', 0.842),
  ('C=CCCCCCCCCCCCC(O)CC(O)CO (configuration not stated)', 'normalized growth', 0.887),
  ('CCOC(=O)C1C(C=C(C)C)C1(C)C (configuration not stated)', 'normalized growth', 0.993),
  ('C=C1C2CC[C@@]3(C)[C@H](c4ccoc4)OC(=O)C[C@]13O[C@H]1CC(=O)C(C)(C)[C@H](C(O)C(=O)OC)[C@@]21C (some centres not stated)', 'normalized growth', 1.02),
  ('COc1ccc(-c2coc3cc(OC)cc(O)c3c2=O)cc1', 'normalized growth', 0.94);

Documented normalized growth of CCCCCCCCCCCCCCCC[n+]1ccccc1 : 0.0612

Documented normalized growth of Nc1ccc(C(=O)O)c(O)c1 : 0.993

Documented normalized growth of NCCc1ccc(O)cc1 : 0.997

Documented normalized growth of CC1(C)O[C@@H]2CC3C4C[C@H](F)C5=CC(=O)C=CC5(C)C4C(O)CC3(C)[C@]2(C(=O)CO)O1 (some centres not stated) : 0.98

Documented normalized growth of C=CCCCCCCCCCCCC(O)CC(O)CO (configuration not stated) (tested in a mixture with another compound) : 0.335

Documented normalized growth of Nc1nc(N)c2nc(-c3ccccc3)c(N)nc2n1 : 1.01

Documented normalized growth of CN(C)CCC=C1c2ccccc2C=Cc2ccccc21 : 0.919

Documented normalized growth of NC(=O)CC[C@@H](N)C(=O)O : 1.02

Documented normalized growth of CC(=O)OC1CC2C(C)(C)CCCC2(C)C2CCC3(C)C(c4ccoc4)OC(=O)C4OC43C12C (configuration not stated) : 1

Documented normalized growth of O=C(O)/C=C(\CC(=O)O)C(=O)O : 1.02

Documented normalized growth of Nc1ccc(C(=O)Oc2ccccc2)c(O)c1 : 0.676

Documented normalized growth of CC1=NCCc2c1[nH]c1cc(O)ccc21 : 0.992

====

protocol-notes: chemical genetic growth profiling, strain panel (AID 1159580)
condition-notes: S. cerevisiae deletion strains, growth OD, locus YOR265W, strain rbl2, hits give low values
Among all 5,500 compounds or so, about 2,000 (36%) were called active. Inconclusive results (about 18%) are left out. This is one part of the list.
Field: label. Allowed values: met (normalized growth < 1) or not met (normalized growth >= 1).

INSERT INTO measurements (compound_string, label_value) VALUES
  ('CC(=O)Oc1c(-c2ccccc2)oc2c(CC=C(C)C)c3c(c(OC(C)=O)c2c1=O)C=CC(C)(C)O3', 'not met');

# next molecule below
Decide: normalized growth of COc1ccc(-c2coc3cc(OC(C)=O)cc(OC(C)=O)c3c2=O)cc1 strictly below 1? met

====

Listing: normalized growth of selected compounds
protocol-notes: chemical genetic growth profiling, strain panel (AID 1159580);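 further: tested at 20 µM; growth read once vehicle control cultures reached saturation at 30 °C; 1 = growth at the plate median or of vehicle wells; lower values mean less growth of the strain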
condition-notes: S. cerevisiae deletion strains, growth OD, locus YDL134C, strain PPH21, hits give low values
About 2,000 (36%) of roughly 5,500 compounds were called active. Inconclusive results (about 18%) are left out. Some of the results follow.
Output spec: single numeric token, no unit.

These recorded examples may help you get a feel for the data.
INSERT INTO results (compound, measurement_kind, measured_number) VALUES
  ('Cc1cc(=O)c2c(o1)-c1c(cc(O)c(O)c1C(=O)O)OC2', 'normalized growth', 1),
  ('Cc1cc(=O)c2c(O)c3c(cc2o1)OC(C)(C)CC3', 'normalized growth', 0.981),
  ('CC[N+]1(C)CCCC(OC(=O)C(O)(c2ccccc2)c2ccccc2)C1 (stereo not given)', 'normalized growth', 1.02);

Documented normalized growth of Cc1onc(-c2c(Cl)cccc2Cl)c1C(=O)N1CCN(c2ncccc2C(F)(F)F)CC1 : 0.988

Documented normalized growth of CC(C)[C@]12O[C@H]1[C@@H]1O[C@@]13[C@@]1(C)CCC4=C(COC4=O)[C@@H]1C[C@@H]1O[C@@]13C2=O : 1.01

====

protocol-notes: chemical genetic growth profiling, strain panel (AID 1159580);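 further: tested at 20 µM; growth read once vehicle control cultures reached saturation at 30 °C; 1 = growth at the plate median or of vehicle wells; lower values mean less growth of the strain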
condition-notes: S. cerevisiae deletion strains, growth OD, locus YOL078W, strain AVO1, hits give low values
Hit rate of the full screen: of about 5,500 compounds, about 2,000 (36%) were called active. Roughly 18% stayed inconclusive and do not appear here. The list shows a part of the results.
Listing: normalized growth of selected compounds

These recorded examples may help you get a feel for the data.
INSERT INTO measurements (compound, measurement_kind, result) VALUES
  ('O=C1c2ccccc2O[C@@H](c2ccccc2)[C@@H]1NC1CCCCC1', 'normalized growth', '0.9 (inactive)'),
  ('CC(C)(C)c1csc(NC(=O)Nc2ccc(Cl)cc2)n1', 'normalized growth', '0.982 (inactive)'),
  ('Fc1ccc(N/N=C\Cc2nnnn2-c2ccccc2)c(F)c1', 'normalized growth', '0.947 (inactive)');

Documented normalized growth of C/C(=N/Nc1nc(C(C)(C)C)cs1)c1ccc(Cl)c(Cl)c1 : 0.989 (inactive)

Documented normalized growth of N=c1ccc2nc3c(Cl)c4c(c(Cl)c3oc-2c1S(=O)(=O)O)Nc1ccc(N)c(S(=O)(=O)O)c1O4 : 1.01 (inactive)

Documented normalized growth of Cc1ccc2c(c1)CCCN2CC(=O)N(c1ccccc1)C1CCCCC1 : 0.99 (inactive)

Documented normalized growth of Clc1ccccc1N/N=C\Cc1nnnn1-c1ccccc1 : 0.962 (inactive)

====

protocol-notes: chemical genetic growth profiling, strain panel (AID 1159580);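 further: tested at 20 µM; growth read once vehicle control cultures reached saturation at 30 °C; 1 = growth at the plate median or of vehicle wells; lower values mean less growth of the strain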
condition-notes: S. cerevisiae deletion strains, growth OD, locus YDR001C, strain nth1, hits give low values
The whole screen tested about 5,500 compounds, of which about 2,000 (36%) were called active. Roughly 18% stayed inconclusive and do not appear here. The list shows a part of the results.
Listing: normalized growth of selected molecules
Output spec: single numeric token, no unit.

These recorded examples may help you get a feel for the data.
INSERT INTO results (molecule, measured_number) VALUES
  ('COc1cc([C@@H]2c3cc4c(cc3C(O[C@@H]3O[C@@H]5CO[C@@H](c6cccs6)OC5[C@H](O)[C@H]3O)C3COC(=O)[C@@H]32)OCO4)cc(OC)c1O (stereo not given in full)', 0.985),
  ('C=CCc1ccccc1OCC(O)CNC(C)C (stereo not given)', 1),
  ('CN1CCOC(c2ccccc2)c2ccccc2C1 (stereo not given)', 0.974);

Documented normalized growth of COCCOC(=O)C1=C(C)NC(C)=C(C(=O)OC(C)C)C1c1cccc([N+](=O)[O-])c1 (stereo not given) : 1.01

Documented normalized growth of CC(C)(O)[C@@H]1CC[C@](C)([C@H]2[C@@H](O)C[C@@]3(C)C4C[C@H](O[C@@H]5O[C@H](CO)[C@@H](O)[C@H](O)[C@H]5O)C5C(C)(C)[C@@H](O[C@@H]6OC[C@@H](O)[C@H](O)[C@H]6O)CC[C@@]56C[C@@]46CC[C@]23C)O1 (stereo not given in full) : 0.991
